Target: human MR (Homo sapiens)
Construct: The full length human MR gene is cloned from a human kidney or human brain cDNA library; made in house; host or cells: SF9 insect cells (baculovirus)
Sequence (P08235 whole entry): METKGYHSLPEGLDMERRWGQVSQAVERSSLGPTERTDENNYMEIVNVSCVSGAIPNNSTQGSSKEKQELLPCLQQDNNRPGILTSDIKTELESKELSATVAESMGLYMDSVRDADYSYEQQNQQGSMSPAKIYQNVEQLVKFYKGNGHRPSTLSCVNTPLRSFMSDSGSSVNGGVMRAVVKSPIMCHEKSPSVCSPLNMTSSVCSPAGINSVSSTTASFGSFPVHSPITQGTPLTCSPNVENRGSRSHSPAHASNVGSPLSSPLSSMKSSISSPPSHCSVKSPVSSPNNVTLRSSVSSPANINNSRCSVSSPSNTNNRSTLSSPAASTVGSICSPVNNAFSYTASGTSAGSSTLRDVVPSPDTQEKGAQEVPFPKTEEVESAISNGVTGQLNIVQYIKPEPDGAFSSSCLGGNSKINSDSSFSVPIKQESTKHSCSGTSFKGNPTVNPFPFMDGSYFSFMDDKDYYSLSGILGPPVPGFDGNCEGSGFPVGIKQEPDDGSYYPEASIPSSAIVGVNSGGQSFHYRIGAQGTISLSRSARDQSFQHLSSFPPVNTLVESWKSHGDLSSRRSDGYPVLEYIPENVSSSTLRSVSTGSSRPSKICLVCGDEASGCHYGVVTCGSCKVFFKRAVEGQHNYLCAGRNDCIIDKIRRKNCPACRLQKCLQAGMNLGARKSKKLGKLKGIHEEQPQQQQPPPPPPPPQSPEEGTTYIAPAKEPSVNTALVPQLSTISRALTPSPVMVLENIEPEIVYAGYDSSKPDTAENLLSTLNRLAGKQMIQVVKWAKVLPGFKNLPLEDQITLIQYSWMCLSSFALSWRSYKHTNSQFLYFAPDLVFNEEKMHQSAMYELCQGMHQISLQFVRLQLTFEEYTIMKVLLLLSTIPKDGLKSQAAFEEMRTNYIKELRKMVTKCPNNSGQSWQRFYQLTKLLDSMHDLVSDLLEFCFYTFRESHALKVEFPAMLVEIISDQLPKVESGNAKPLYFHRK
Experiment: Mineralocorticoid Receptor Binding Assay (Method 1)
Details: [3H]-aldosterone, racemic mixture unless otherwise indicated
Measurement kind: Ki

Compound	Result
CS(=O)(=O)Nc1cccc2c(C3(CCCN4CCOCC4)CCc4cc(F)ccc43)c[nH]c12 (centres unmarked)	≤ 500 nM
CCC1(c2c[nH]c3c(NS(C)(=O)=O)cccc23)CCOc2cc(F)cc(F)c21 (single isomer, unassigned) [Example 36B]	≤ 500 nM
CCC1(c2c[nH]c3c(NS(C)(=O)=O)cccc23)CCCc2cc(F)ccc21 (racemic) [Example 29]	≤ 500 nM
CCC1(c2c[nH]c3c(NS(=O)(=O)N(C)C)cccc23)CCc2cc(F)ccc21 (centres unmarked)	≤ 500 nM
CC1(c2c[nH]c3c(NS(C)(=O)=O)cccc23)CCc2cc(-n3cccn3)ccc21 (centres unmarked)	≤ 500 nM

Prompt: Which Ki is listed for CCc1cccc2c(C3(CC)CCc4cc(F)ccc43)c[nH]c12 (centres unmarked) ?
Response: ≤ 1000 nM

Prompt: Entry CC1(c2c[nH]c3c(NS(C)(=O)=O)cccc23)CCc2ccccc21 (centres unmarked) : reported Ki = ?
Response: ≤ 500 nM

Prompt: Look at this compound and give its reported Ki. CCC1(c2c[nH]c3ccccc23)CCc2cc(F)ccc21 (centres unmarked)
Response: ≤ 500 nM

----------
Target: human GR (glucocorticoid receptor) (Homo sapiens, UniProt P04150)
Construct: expressed in transfected cells; host or cells: 293 cells
Sequence (P04150 whole entry): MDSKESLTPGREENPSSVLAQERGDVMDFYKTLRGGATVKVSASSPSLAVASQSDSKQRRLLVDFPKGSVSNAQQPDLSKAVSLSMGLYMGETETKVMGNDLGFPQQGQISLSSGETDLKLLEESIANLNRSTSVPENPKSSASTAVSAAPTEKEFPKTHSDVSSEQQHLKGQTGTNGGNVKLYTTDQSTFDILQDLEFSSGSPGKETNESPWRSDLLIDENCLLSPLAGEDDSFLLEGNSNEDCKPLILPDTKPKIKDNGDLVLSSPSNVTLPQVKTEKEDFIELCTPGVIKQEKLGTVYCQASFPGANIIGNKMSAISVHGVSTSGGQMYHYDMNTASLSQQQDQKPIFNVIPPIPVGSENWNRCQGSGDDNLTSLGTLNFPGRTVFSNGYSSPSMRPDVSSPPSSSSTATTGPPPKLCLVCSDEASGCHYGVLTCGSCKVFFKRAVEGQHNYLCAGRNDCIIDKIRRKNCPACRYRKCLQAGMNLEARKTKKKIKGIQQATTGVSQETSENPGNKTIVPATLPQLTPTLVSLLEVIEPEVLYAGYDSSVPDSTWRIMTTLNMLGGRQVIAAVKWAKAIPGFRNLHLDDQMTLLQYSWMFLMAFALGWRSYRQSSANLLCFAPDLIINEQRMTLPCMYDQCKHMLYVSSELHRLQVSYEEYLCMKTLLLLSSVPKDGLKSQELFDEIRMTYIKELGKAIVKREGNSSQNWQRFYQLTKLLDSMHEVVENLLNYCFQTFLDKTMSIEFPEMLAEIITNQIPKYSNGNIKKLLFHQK
Test: Alternative Binding Assay Protocol (Method 2), GR
Settings: 3H-dexamethasone, 293-GR lysate, racemic mixture unless otherwise indicated
Measurement kind: Ki

Prompt: Entry under review: CCC1(c2c[nH]c3c(NS(C)(=O)=O)cccc23)CCOc2cc(F)cc(F)c21 (single isomer, unassigned) [Example 36A] . Reported Ki?
Response: ≤ 500 nM

Prompt: # lookup: Ki of CCC1(c2c[nH]c3c(NC(C)=O)cccc23)CCc2cc(F)ccc21 (stereo not drawn)
Response: ≤ 500 nM

Prompt: Entry under review: CS(=O)(=O)Nc1cccc2c(C3(C4CC4)CCc4cc(F)ccc43)c[nH]c12 (single isomer, unassigned) [Example 39A] . Reported Ki?
Response: ≤ 500 nM

Prompt: Fill in: Ki of CC1(c2c[nH]c3c(NS(C)(=O)=O)cccc23)CCc2cc(F)cc(F)c21 (single isomer, unassigned) [Example 22A] is ___
Response: ≤ 500 nM

Prompt: Endpoint output: Ki of CS(=O)(=O)Nc1cccc2c(C3(CCCI)CCc4cc(F)ccc43)c[nH]c12 (stereo not drawn) . Value?
Response: ≤ 500 nM

Prompt: Form field: reported Ki of CCC1(c2c[nH]c3c(NS(C)(=O)=O)cccc23)CCOc2cc(F)cc(F)c21 (racemic) [Example 36]
Response: ≤ 500 nM

Prompt: Would you kindly share the measured Ki for CCC1(c2c[nH]c3c([N+](=O)[O-])cccc23)CCc2cc(F)ccc21 (stereo not drawn) ?
Response: ≤ 500 nM

Prompt: Can you look up the measured Ki of CS(=O)(=O)Nc1cccc2c(C3(CCCN4CCOCC4)CCc4cc(F)ccc43)c[nH]c12 (stereo not drawn) for me?
Response: ≤ 500 nM

Prompt: What value of measured Ki is listed for CCC1(c2c[nH]c3c(NS(=O)(=O)c4ccccc4)cccc23)CCc2cc(F)ccc21 (stereo not drawn) ?
Response: ≤ 500 nM

Prompt: Recorded Ki of CS(=O)(=O)Nc1cccc2c(C3(CCCO)CCc4cc(F)ccc43)c[nH]c12 (single isomer, unassigned) [Example 40B] , please.
Response: ≤ 500 nM

Prompt: Reported Ki, compound CCC1(c2c[nH]c3c(NS(=O)(=O)N(C)C)cccc23)CCc2cc(F)ccc21 (stereo not drawn) : ____
Response: ≤ 500 nM

Prompt: I am curious: what Ki value has been reported for CCC1(c2c[nH]c3c(N)cccc23)CCc2cc(F)ccc21 (stereo not drawn) ?
Response: ≤ 1000 nM

Prompt: Ki for CS(=O)(=O)Nc1cccc2c(C3(C4CC4)CCc4cc(F)ccc43)c[nH]c12 (racemic) [Example 39] ?
Response: ≤ 500 nM

Prompt: Recorded Ki for CC1(c2c[nH]c3c(NS(C)(=O)=O)cccc23)CCc2cc(F)cc(F)c21 (racemic) [Example 22] , please?
Response: ≤ 500 nM

Prompt: Which Ki is listed for CN(C)CCCC1(c2c[nH]c3c(NS(C)(=O)=O)cccc23)CCc2cc(F)ccc21 (stereo not drawn) ?
Response: ≤ 10000 nM
